# target.system: PPARα (Homo sapiens, UniProt Q07869)
# assay.comment: PPARα-GAL4 chimeric receptor transactivation in HEK-293 cells
# Assay type: cell-based
# measurement.context: PPAR-GAL4 chimeric receptors, transiently transfected HEK-293 cells; ia = inactive at 10 μM
measurement.type: EC50 (nM)

P: CC[C@H](Cc1ccc(OC)c(CNC(=O)c2ccc(C(F)(F)F)c(F)c2)c1)C(=O)O
Q: CCC(Cc1ccc(OC)c(CNC(=O)c2ccc(C(F)(F)F)cc2F)c1)C(=O)O (racemic) [Compound 38]
Asked: From the recorded data, which exceeds the other in EC50: P or Q ? Returns: label corresponding to the selected item.
Given back: P
(P: 150 nM, Q: 10 nM)

---

# target.system: UniProt Q95N78
# Sequence (Q95N78 whole entry): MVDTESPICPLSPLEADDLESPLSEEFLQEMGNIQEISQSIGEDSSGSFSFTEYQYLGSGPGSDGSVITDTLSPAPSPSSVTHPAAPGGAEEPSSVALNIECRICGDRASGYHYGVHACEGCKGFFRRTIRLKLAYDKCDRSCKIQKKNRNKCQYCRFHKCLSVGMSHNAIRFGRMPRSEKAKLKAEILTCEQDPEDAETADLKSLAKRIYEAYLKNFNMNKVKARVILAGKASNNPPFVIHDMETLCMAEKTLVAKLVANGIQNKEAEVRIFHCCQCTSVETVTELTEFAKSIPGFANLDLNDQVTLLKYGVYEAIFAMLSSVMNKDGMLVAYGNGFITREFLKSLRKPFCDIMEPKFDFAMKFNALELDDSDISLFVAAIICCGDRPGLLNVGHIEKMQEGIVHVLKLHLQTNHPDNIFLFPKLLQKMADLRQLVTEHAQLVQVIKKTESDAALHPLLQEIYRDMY
# assay.comment: Dog PPARα transactivation (species differences)
# measurement.context: CHO-K1 cells (footnote of Table 1)
measurement.type: EC50 (nM)
Give a bare numeral; the unit nM is implied.

Asked: // EC50 lookup, key: `CC[C@@H](Cc1ccc(OC)c(C(=O)NCc2ccc(C(F)(F)F)cc2)c1)C(=O)O`
Given back: 160

---

# target.system: UniProtKB Q03181
# Sequence (Q03181 171-441 limits assumed): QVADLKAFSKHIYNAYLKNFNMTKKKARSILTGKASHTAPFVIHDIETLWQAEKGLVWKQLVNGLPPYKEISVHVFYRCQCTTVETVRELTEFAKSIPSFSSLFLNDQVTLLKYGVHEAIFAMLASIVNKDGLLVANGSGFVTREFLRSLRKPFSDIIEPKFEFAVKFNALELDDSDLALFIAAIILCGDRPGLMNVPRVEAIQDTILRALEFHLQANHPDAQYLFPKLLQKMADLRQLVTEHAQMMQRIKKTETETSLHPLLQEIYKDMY
# assay.comment: cell-based
# Format: cell-based
# measurement.context: PPAR-GAL4 chimeric receptors, transiently transfected HEK-293 cells; ia = inactive at 10 μM; read-out: Transactivation activity EC50 PPARδ
measurement.type: EC50 (nM)
State the answer as a number, implicitly in nM.

>  <compound>
CC[C@H](Cc1ccc(OC)c(CNC(=O)c2ccc(C(F)(F)F)c(F)c2)c1)C(=O)O

>  <endpoint.unit>
nM

>  <meas.value>
840

$$$$
>  <compound>
CCCC(Cc1ccc(OC)c(CNC(=O)c2ccc(C(F)(F)F)cc2F)c1)C(=O)O (centres unmarked)

>  <endpoint.unit>
nM

>  <meas.value>
40

$$$$
>  <compound>
CCCCCCOc1ccc(CC(CC)C(=O)O)cc1CNC(=O)c1ccc(C(F)(F)F)cc1 (centres unmarked)

>  <endpoint.unit>
nM

>  <meas.value>
45

$$$$
>  <compound>
COc1ccc(CC(C)C(=O)O)cc1CNC(=O)c1ccc(C(F)(F)F)cc1 (centres unmarked)

>  <endpoint.unit>
nM

>  <meas.value>
210

$$$$
>  <compound>
CC[C@@H](Cc1ccc(OC)c(CNC(=O)c2ccc(C(F)(F)F)c(F)c2)c1)C(=O)O

>  <endpoint.unit>
nM

>  <meas.value>
23

$$$$
>  <compound>
CCCCOc1ccc(CC(CC)C(=O)O)cc1CNC(=O)c1ccc(C(F)(F)F)cc1F (centres unmarked)

>  <endpoint.unit>
nM

>  <meas.value>
1.9

$$$$
>  <compound>
CCCC(Cc1ccc(OC)c(CNC(=O)c2ccc(C(F)(F)F)cc2)c1)C(=O)O (centres unmarked)

>  <endpoint.unit>
nM

>  <meas.value>
120

$$$$

Please look at the following compound next.
Asked: Any idea what its EC50 is? The compound is CCCOc1ccc(CC(CC)C(=O)O)cc1CNC(=O)c1ccc(C(F)(F)F)cc1F (centres unmarked)
Given back: 1.7

---

# target.system: UniProtKB Q03181
# assay.comment: cell-based
# Assay type: cell-based
# measurement.context: PPAR-GAL4 chimeric receptors, transiently transfected CHO-K1 cells; ia = inactive at 10 μM; read-out: Transactivation activity EC50 PPARδ
measurement.type: pEC50
Lab note: report pEC50 as minus log10 of the concentration in molar units, number only.

Asked: Param readout = pEC50; param system = UniProtKB Q03181; param query = CCC(Cc1ccc(OC)c(C(=O)NCc2ccc(C(F)(F)F)cc2)c1)C(=O)O (stereo not drawn) ; response: value
Given back: 5.44

Asked: What measured pEC50 is associated with CCC(Cc1ccc(OC)c(CNCc2ccc(C(F)(F)F)cc2)c1)C(=O)O (stereo not drawn) on UniProtKB Q03181?
Given back: 5.10

---

Below is a list of entries, each paired with its recorded EC50 value.
# target.system: PPARα (Homo sapiens, UniProt Q07869)
# Sequence (Q07869 200-468 limits assumed): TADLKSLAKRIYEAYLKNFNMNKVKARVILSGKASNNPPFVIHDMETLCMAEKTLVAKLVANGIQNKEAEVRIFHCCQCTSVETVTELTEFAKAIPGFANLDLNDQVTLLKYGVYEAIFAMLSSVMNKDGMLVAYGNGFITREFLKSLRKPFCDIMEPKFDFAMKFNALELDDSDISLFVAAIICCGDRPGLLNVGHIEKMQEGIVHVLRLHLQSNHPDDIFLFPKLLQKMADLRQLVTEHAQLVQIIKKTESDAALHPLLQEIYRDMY
# assay.comment: PPARα-GAL4 chimeric receptor transactivation in CHO-K1 cells
# Type: cell-based
# measurement.context: read-out: Transactivation activity EC50 PPARα
// return numeric value only (unit: nM, not printed)

>  <compound>
CCC(Cc1ccc(OC)c(CC(=O)Nc2ccc(C(F)(F)F)cc2)c1)C(=O)O (centres unmarked)

>  <EC50 / nM>
20

$$$$

Asked: What EC50 value was documented for this compound, CCC(Cc1ccc(OC)c(C(=O)NCCc2ccc(C(F)(F)F)cc2)c1)C(=O)O (centres unmarked) ?
Given back: 740

Asked: Fill blank: measured EC50 of the compound CCC(Cc1ccc(OC)c(OCCc2ccc(C(F)(F)F)cc2)c1)C(=O)O (centres unmarked) is ____.
Given back: 680

Asked: Which EC50 reading was recorded for the compound CCC(Cc1ccc(OC)c(C(=O)Nc2ccc(C(F)(F)F)cc2)c1)C(=O)O (centres unmarked) ?
Given back: 6000

Asked: Name the recorded EC50 for CCC(Cc1ccc(OC)c(NC(=O)Cc2ccc(C(F)(F)F)cc2)c1)C(=O)O (centres unmarked) .
Given back: 130

Asked: Given the entry CCC(Cc1ccc(OC)c(C(=O)CCc2ccc(C(F)(F)F)cc2)c1)C(=O)O (centres unmarked) , report its measured EC50.
Given back: 320

Asked: May I ask what EC50 has been recorded for CCC(Cc1ccc(OC)c(CNCc2ccc(C(F)(F)F)cc2)c1)C(=O)O (centres unmarked) ?
Given back: 4900

Asked: Please report the recorded EC50 for CCC(Cc1ccc(OC)c(CCCc2ccc(C(F)(F)F)cc2)c1)C(=O)O (centres unmarked) .
Given back: 860

---

# target.system: PPARα (Homo sapiens)
# assay.comment: PPARα-GAL4 chimeric receptor transactivation in HEK-293 cells
# Type: cell-based
# measurement.context: PPAR-GAL4 chimeric receptors, transiently transfected HEK-293 cells; ia = inactive at 10 μM
pEC50: −log10 of the molar value.
measurement.type: pEC50

>  <molecule>
CCCCOc1ccc(C[C@@H](CC)C(=O)O)cc1CNC(=O)c1ccc(C(F)(F)F)cc1F [Compound 66]

>  <pEC50>
6.21

$$$$
>  <molecule>
CCCCOc1ccc(CC(CC)C(=O)O)cc1CNC(=O)c1ccc(C(F)(F)F)cc1 (centres unmarked) [Compound 52]

>  <pEC50>
6.28

$$$$
>  <molecule>
CCCCOc1ccc(CC(CC)C(=O)O)cc1CNC(=O)c1ccc(C(F)(F)F)cc1F (centres unmarked) [Compound 57]

>  <pEC50>
6.55

$$$$
>  <molecule>
COc1ccc(CCC(=O)O)cc1CNC(=O)c1ccc(C(F)(F)F)cc1 [Compound 58]

>  <pEC50>
6.68

$$$$
>  <molecule>
CCCC(Cc1ccc(OC)c(CNC(=O)c2ccc(C(F)(F)F)cc2F)c1)C(=O)O (centres unmarked) [Compound 62]

>  <pEC50>
7.54

$$$$

P: CCC(Cc1ccc(OC)c(CNC(=O)c2ccc(C(F)(F)F)cc2)c1)C(=O)O (racemic) [Compound 49]
Q: CCC(Cc1ccc(OC)c(CNC(=O)c2ccc(C(F)(F)F)c(F)c2)c1)C(=O)O (centres unmarked) [Compound 39]
Asked: Which shows the larger pEC50 value: P or Q ? Your answer should be the label attached to the chosen record.
Given back: Q
(Q: 7.96, P: 7.74)

---

# target.system: PPARγ (Homo sapiens, UniProt P37231)
# Sequence (P37231 238-505 limits assumed): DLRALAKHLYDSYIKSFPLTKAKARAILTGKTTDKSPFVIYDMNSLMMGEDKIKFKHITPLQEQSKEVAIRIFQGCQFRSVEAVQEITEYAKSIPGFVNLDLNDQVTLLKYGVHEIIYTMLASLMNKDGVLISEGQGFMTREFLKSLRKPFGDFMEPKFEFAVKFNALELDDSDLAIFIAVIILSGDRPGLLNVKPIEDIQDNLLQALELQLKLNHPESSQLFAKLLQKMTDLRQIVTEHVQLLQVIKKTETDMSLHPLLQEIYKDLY
# assay.comment: cell-based
# Format: cell-based
# measurement.context: read-out: Transactivation activity EC50 PPARγ
measurement.type: EC50 (µM)
Please give a number only; it is taken to be in µM.

>  <compound>
CCCCOc1ccc(C[C@H](CC)C(=O)O)cc1CNC(=O)c1ccc(C(F)(F)F)cc1F

>  <endpoint.unit>
µM

>  <meas.value>
1.1

$$$$
>  <compound>
CCC(Cc1ccc(OCc2ccccc2)c(CNC(=O)c2ccc(C(F)(F)F)cc2)c1)C(=O)O (stereo not shown)

>  <endpoint.unit>
µM

>  <meas.value>
6.2

$$$$
>  <compound>
CC[C@@H](Cc1ccc(OC)c(CNC(=O)c2ccc(C(F)(F)F)c(F)c2)c1)C(=O)O

>  <endpoint.unit>
µM

>  <meas.value>
4.9

$$$$

Proceeding to the next compound to report its EC50.
Asked: I would be grateful if you could share the reported EC50 for CCCCOc1ccc(CC(CC)C(=O)O)cc1CNC(=O)c1ccc(C(F)(F)F)cc1F (stereo not shown) .
Given back: 1.4

Recorded values, source paper PMC2430034.
